We begin with a simple list: items and their reported pest or weed control at 140 g/ha.
- Test system: Key Grass and Sedge Weeds as well as Grass Crops
- assay: Post-Emergent Test II: postemergent herbicidal activity, visual rating after 14 d (Table 8)
- Format: in vivo
- experimental_parameters: post-emergence, 336 h, maize, corn (Zea mays), 140 g ai/ha, read-out: Visual Growth Reduction (%) 14 Days After Application ZEAMX

Given COC(=O)c1nc(-c2ccc3c(c2)OC(C)(C)O3)nc(N)c1Cl , state its recorded pest or weed control at 140 g/ha. 60 to 74%

====

We begin with a simple list: items and their reported pest or weed control at 17.5 g/ha.
- Tested on: Wheat and Barley and weed species
- assay: Post-Emergent Test III: postemergent herbicidal activity in wheat and barley, visual rating after 21 d and probit GR20/GR50/GR80/GR90 (Tables 9-13)
- Assay type: in vivo
- experimental_parameters: Hordeum vulgare, post-emergence, 504 h; HORVS barley, spring (crop); 17.5 g ai/ha; read-out: Visual Growth Reduction (%) 21 Days After Application HORVS

Below, each entry is followed by its recorded pest or weed control at 17.5 g/ha result.
{"structure_notation": "Nc1c(F)c(-c2ccc3c(c2)OC(F)(F)O3)nc(C(=O)O)c1Cl", "pest or weed control at 17.5 g/ha": "75 to 84%"}
{"structure_notation": "COC(=O)c1nc(-c2ccc(Br)c3c2OC(F)(F)O3)c(F)c(N)c1Cl", "pest or weed control at 17.5 g/ha": "30 to 44%"}
{"structure_notation": "Nc1c(F)c(-c2ccc(Cl)c3c2OC(F)(F)O3)nc(C(=O)O)c1Cl", "pest or weed control at 17.5 g/ha": "30 to 44%"}

Given COC(=O)c1nc(-c2ccc3c(c2)OC(C)(C)O3)c(F)c(N)c1Cl , state its recorded pest or weed control at 17.5 g/ha. 30 to 44%

Given COC(=O)c1nc(-c2cc3c(cc2F)OC(F)(F)O3)c(F)c(N)c1Cl , state its recorded pest or weed control at 17.5 g/ha. 60 to 74%

Given COC(=O)c1nc(-c2cc3c(cc2F)OC(F)(F)O3)cc(N)c1Cl , state its recorded pest or weed control at 17.5 g/ha. 45 to 59%

Given Nc1c(F)c(-c2cc3c(cc2F)OC(F)(F)O3)nc(C(=O)O)c1Cl , state its recorded pest or weed control at 17.5 g/ha. 60 to 74%

Given Nc1c(F)c(-c2ccc3c(c2F)OC(F)(F)O3)nc(C(=O)O)c1Cl , state its recorded pest or weed control at 17.5 g/ha. 60 to 74%

====

We begin with a simple list: items and their reported pest or weed control at 140 g/ha.
- Tested on: Key Grass and Sedge Weeds as well as Grass Crops
- assay: Post-Emergent Test II: postemergent herbicidal activity, visual rating after 14 d (Table 8)
- Assay type: in vivo
- experimental_parameters: post-emergence, 336 h, giant foxtail (Setaria faberi), 140 g ai/ha, read-out: Visual Growth Reduction (%) 14 Days After Application SETFA

{"compound": "COC(=O)c1nc(-c2ccc3c(c2Cl)OC(F)(F)O3)cc(N)c1Cl [Compound 33]", "pest or weed control at 140 g/ha": "45 to 59%"}
{"compound": "COC(=O)c1nc(-c2ccc3c(c2)OC(C)(C)O3)nc(N)c1Cl [Compound 55]", "pest or weed control at 140 g/ha": "85 to 94%"}

Given Nc1c(F)c(-c2cccc3c2OC(F)(F)O3)nc(C(=O)O)c1Cl [Compound 74] , state its recorded pest or weed control at 140 g/ha. 0 to 29%

Given COC(=O)c1nc(-c2cc3c(cc2F)OCO3)c(F)c(N)c1OC [Compound 26] , state its recorded pest or weed control at 140 g/ha. 0 to 29%

Given Nc1c(F)c(-c2ccc(I)c3c2OC(F)(F)O3)nc(C(=O)O)c1Cl [Compound 81] , state its recorded pest or weed control at 140 g/ha. 0 to 29%

Given COC(=O)c1nc(-c2cc3c(cc2OC)OC(F)(F)O3)cc(N)c1Cl [Compound 38] , state its recorded pest or weed control at 140 g/ha. 0 to 29%

Given COC(=O)c1nc(-c2cc3c(cc2F)OCO3)c(F)c(N)c1Cl [Compound 16] , state its recorded pest or weed control at 140 g/ha. 60 to 74%

Given C=Cc1c(C(=O)OC)nc(-c2cc3c(cc2F)OC(F)(F)O3)c(F)c1N [Compound 27] , state its recorded pest or weed control at 140 g/ha. 0 to 29%

Given Nc1c(F)c(-c2ccc3c(c2)OC(F)(F)O3)nc(C(=O)O)c1Cl [Compound 7] , state its recorded pest or weed control at 140 g/ha. 95 to 100%

Given COc1c(C(=O)O)nc(-c2cc3c(cc2F)OC(F)(F)O3)c(F)c1N [Compound 23] , state its recorded pest or weed control at 140 g/ha. 75 to 84%

Given Nc1cc(-c2ccc3c(c2Cl)OC(F)(F)O3)nc(C(=O)O)c1Cl [Compound 34] , state its recorded pest or weed control at 140 g/ha. 75 to 84%

Given COC(=O)c1nc(-c2ccc3c(c2)OC(C)(C)O3)nc(N)c1OC [Compound 67] , state its recorded pest or weed control at 140 g/ha. 60 to 74%

Given Nc1nc(-c2ccc3c(c2F)OC(F)(F)O3)nc(C(=O)O)c1Cl [Compound 59] , state its recorded pest or weed control at 140 g/ha. 60 to 74%

Given COC(=O)c1nc(-c2cc3c(cc2F)OC(F)(F)O3)c(F)c(N)c1F [Compound 21] , state its recorded pest or weed control at 140 g/ha. 60 to 74%

Given COC(=O)c1nc(-c2ccc(Br)c3c2OC(F)(F)O3)c(F)c(N)c1Cl [Compound 78] , state its recorded pest or weed control at 140 g/ha. 0 to 29%

Given C=Cc1c(C(=O)O)nc(-c2ccc3c(c2)OC(F)(F)O3)c(F)c1N [Compound 30] , state its recorded pest or weed control at 140 g/ha. 0 to 29%

Given COC(=O)c1nc(-c2ccc3c(c2F)OC(F)(F)O3)c(F)c(N)c1Cl [Compound 10] , state its recorded pest or weed control at 140 g/ha. 95 to 100%

Given COC(=O)c1nc(-c2ccc3c(c2)OC(C)(C)O3)c(F)c(N)c1Cl [Compound 8] , state its recorded pest or weed control at 140 g/ha. 95 to 100%

Data provenance: patent US9149038B2
